# Tested on: MDA-MB-231 breast
# Experiment Notes: NCI tumour cell line growth inhibition, 48 h
For each entry below, report its TGI value.

Please report the measured TGI for N#CC12C(=O)N3C(=NC(c4ccccc4)NC3c3ccccc3)C1(C#N)C(c1ccccc1)NC1=C2CCCC1 (centres undefined) tested on MDA-MB-231 breast. > 100 µM

Please report the measured TGI for O=C(N/N=C/c1ccc(Cl)cc1)c1cc(I)cc(I)c1O tested on MDA-MB-231 breast. > 100 µM

Please report the measured TGI for CCC(=O)NC(OCC1(CC)COC1)(C(F)(F)F)C(F)(F)F tested on MDA-MB-231 breast. > 100 µM

Please report the measured TGI for Cc1nn(C)c2nc3ccc(Cl)cc3c(-c3ccccc3)c12 tested on MDA-MB-231 breast. > 100 µM

Attribution: PubChem BioAssay (NCI)
